Target: human vasopressin V1a receptor (Homo sapiens, UniProt P37288)
Sequence (P37288 whole entry): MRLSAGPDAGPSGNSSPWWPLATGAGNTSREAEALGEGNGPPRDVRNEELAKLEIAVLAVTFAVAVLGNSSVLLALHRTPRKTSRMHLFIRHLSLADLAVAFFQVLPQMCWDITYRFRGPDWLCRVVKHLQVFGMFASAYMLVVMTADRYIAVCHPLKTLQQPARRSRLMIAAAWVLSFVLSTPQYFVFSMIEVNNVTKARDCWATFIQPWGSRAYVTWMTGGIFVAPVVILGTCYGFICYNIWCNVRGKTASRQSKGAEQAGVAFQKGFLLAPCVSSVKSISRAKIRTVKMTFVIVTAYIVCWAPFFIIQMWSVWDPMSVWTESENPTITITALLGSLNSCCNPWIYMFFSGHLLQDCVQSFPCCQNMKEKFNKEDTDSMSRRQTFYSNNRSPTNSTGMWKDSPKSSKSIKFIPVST
Test: Human vasopressin V1a receptor binding assay
Settings: 1321N1 cell membranes, [3H]vasopressin; read-out: Ki (nM) on hV1a cell line
Here, each record is paired with measured Ki data.
property_label: Ki (nM)

compound	assay_target	property_label	experimental_result
CCN(CC)[C@H]1Cc2cc(Cl)ccc2-n2c(nnc2[C@H]2CC[C@H](Oc3ccccn3)CC2)C1	human vasopressin V1a receptor (Homo sapiens, UniProt P37288)	Ki	0.7
COC1Cc2cc(Cl)ccc2-n2c(nnc2C2CCN(C(=O)c3cccnc3)C2)C1 (stereo not shown)	human vasopressin V1a receptor (Homo sapiens, UniProt P37288)	Ki	86
CN1CCC(C(=O)N[C@H]2Cc3cc(Cl)ccc3-n3c(nnc3[C@H]3CC[C@H](Oc4ccccn4)CC3)C2)CC1	human vasopressin V1a receptor (Homo sapiens, UniProt P37288)	Ki	114
COC1Cc2cc(Cl)ccc2-n2c(nnc2C2CCN(Cc3cccnc3)C2)C1 (stereo not shown)	human vasopressin V1a receptor (Homo sapiens, UniProt P37288)	Ki	0.6
COC1Cc2cc(Cl)ccc2-n2c(nnc2C2CCN(Cc3ccccn3)C2)C1 (stereo not shown)	human vasopressin V1a receptor (Homo sapiens, UniProt P37288)	Ki	4.1
CN(C)C1Cc2cc(F)ccc2-n2c(nnc2[C@H]2CC[C@H](Oc3ccccn3)CC2)C1 (stereo partly shown)	human vasopressin V1a receptor (Homo sapiens, UniProt P37288)	Ki	1
CO[C@]1(C)CC[C@@H](c2nnc3n2-c2ccc(Cl)cc2CC2(C3)OCCCO2)CC1	human vasopressin V1a receptor (Homo sapiens, UniProt P37288)	Ki	0.2
O=C(CO)NC1Cc2cc(Cl)ccc2-n2c(nnc2[C@H]2CC[C@H](Oc3ccccn3)CC2)C1 (stereo partly shown)	human vasopressin V1a receptor (Homo sapiens, UniProt P37288)	Ki	0.4
COC1Cc2cc(Cl)ccc2-n2c(nnc2[C@H]2CC[C@](OC)(C(F)(F)F)CC2)C1 (stereo partly shown)	human vasopressin V1a receptor (Homo sapiens, UniProt P37288)	Ki	5.8
Clc1ccc2c(c1)CC1(Cc3nnc(N4CCC5(CC4)OCc4ccccc45)n3-2)OCCO1	human vasopressin V1a receptor (Homo sapiens, UniProt P37288)	Ki	0.04
CN1C[C@]2(CC[C@@H](c3nnc4n3-c3ccc(Cl)cc3CC3(C4)OCCO3)CC2)OC1=O	human vasopressin V1a receptor (Homo sapiens, UniProt P37288)	Ki	3.7
COC1Cc2cc(Cl)ccc2-n2c(nnc2C2CCN([C@@H]3CCOC3)CC2)C1 (stereo partly shown)	human vasopressin V1a receptor (Homo sapiens, UniProt P37288)	Ki	3.9
O=C1Cc2cc(Cl)ccc2-n2c(nnc2[C@H]2CC[C@H](C(F)(F)F)CC2)C1	human vasopressin V1a receptor (Homo sapiens, UniProt P37288)	Ki	14
O=C(N[C@@H]1Cc2cc(Cl)ccc2-n2c(nnc2[C@H]2CC[C@H](Oc3ccccn3)CC2)C1)C1CCC(F)(F)CC1	human vasopressin V1a receptor (Homo sapiens, UniProt P37288)	Ki	0.9
CC(C)OC1Cc2cc(Cl)ccc2-n2c(nnc2[C@H]2CC[C@H](Oc3ccccn3)CC2)C1 (stereo partly shown)	human vasopressin V1a receptor (Homo sapiens, UniProt P37288)	Ki	0.3
NC1Cc2cc(Cl)ccc2-n2c(nnc2[C@H]2CC[C@H](C(F)(F)F)CC2)C1 (stereo partly shown)	human vasopressin V1a receptor (Homo sapiens, UniProt P37288)	Ki	88

* * *

Molecular target: human vasopressin V1a receptor (Homo sapiens)
Assay: Human vasopressin V1a receptor binding assay
Conditions: 1321N1 cell membranes, [3H]vasopressin; read-out: Ki (nM) on hV1a cell line
Counter-ions that a name gives are not always drawn.
Known Ki of a selection of compounds

compound	unit_spec	Ki
O=C([C@H]1CC[C@H](c2nnc3n2-c2ccc(Br)cc2CC2(C3)OCCO2)CC1)N1CCCCC1	nM	0.4
FC(F)(F)[C@H]1CC[C@H](c2nnc3n2-c2ccc(Br)cc2CC2(C3)OCCO2)CC1	nM	0.2
Clc1ccc2c(c1)C[C@H](NC1CCCC1)Cc1nnc([C@H]3CC[C@H](Oc4ccccn4)CC3)n1-2	nM	0.8
Clc1ccc2c(c1)CC1(Cc3nnc(N4CCN(c5ccccn5)CC4)n3-2)OCCO1	nM	0.6
NC1Cc2cc(C(F)(F)F)ccc2-n2c(nnc2[C@H]2CC[C@H](Oc3ccccn3)CC2)C1 (stereo partly shown) [Example 34, hydrochloride]	nM	52
COc1ccc2c(c1)CC(N)Cc1nnc([C@H]3CC[C@H](Oc4ccccn4)CC3)n1-2 (stereo partly shown) [Example 31, hydrochloride]	nM	17
Clc1ccc2c(c1)CC(NC1CCOCC1)Cc1nnc([C@H]3CC[C@H](Oc4ccccn4)CC3)n1-2 (stereo partly shown)	nM	0.6

* * *

Reported IC50 is given for each of the following compounds.
Molecular target: human vasopressin V1a receptor (Homo sapiens, UniProt P37288)
Assay: Functional assay on human vasopressin V1a receptor expressing cell line (intracellular Ca2+ fluorescence)
Format: cell-based
Settings: 1321N1 cells, (Arg8)-vasopressin at EC80; read-out: IC50 (nM) on hV1a cell line
property_label: IC50 (nM)

compound	property_label	experimental_result
O=C(N[C@@H]1Cc2cc(Cl)ccc2-n2c(nnc2[C@H]2CC[C@H](Oc3ccccn3)CC2)C1)C1CC1	IC50	1.8
CN1C[C@]2(CC[C@@H](c3nnc4n3-c3ccc(Cl)cc3CC3(C4)OCCO3)CC2)OC1=O	IC50	10.4
O=C([C@H]1CC[C@H](c2nnc3n2-c2ccc(Br)cc2CC(O)C3)CC1)N1CCCCC1 (stereo partly shown)	IC50	16
CC(C)NC1Cc2cc(C(F)(F)F)ccc2-n2c(nnc2[C@H]2CC[C@H](Oc3ccccn3)CC2)C1 (stereo partly shown)	IC50	610
CC(C)NC1Cc2cc(Cl)ccc2-n2c(nnc2[C@H]2CC[C@H](N3CCOCC3)CC2)C1 (stereo partly shown)	IC50	205
CO[C@H]1Cc2cc(Cl)ccc2-n2c(nnc2[C@H]2CC[C@H](C(F)(F)F)CC2)C1 (single isomer, unassigned)	IC50	6.5
O=C1Cc2cc(Cl)ccc2-n2c(nnc2[C@H]2CC[C@H](C(F)(F)F)CC2)C1	IC50	22

* * *

Biological target: human vasopressin V1a receptor (Homo sapiens, UniProt P37288)
Test: Functional assay on human vasopressin V1a receptor expressing cell line (intracellular Ca2+ fluorescence)
Assay type: cell-based
Conditions: 1321N1 cells, (Arg8)-vasopressin at EC80; read-out: IC50 (nM) on hV1a cell line
Reported IC50 values follow for various molecules
property_label: IC50

molecule	property_label	experimental_result
CS(=O)(=O)NC1Cc2cc(Cl)ccc2-n2c(nnc2[C@H]2CC[C@H](Oc3ccccn3)CC2)C1 (stereo partly shown)	IC50	1.6 nM
NC1Cc2cc(Br)ccc2-n2c(nnc2[C@H]2CC[C@H](Oc3ccccn3)CC2)C1 (stereo partly shown)	IC50	8.3 nM
CO[C@]1(C(F)(F)F)CC[C@H](c2nnc3n2-c2ccc(Cl)cc2CC2(C3)OCCO2)CC1	IC50	4.2 nM
N#Cc1ccc2c(c1)CC1(Cc3nnc([C@H]4CC[C@H](Oc5ccccn5)CC4)n3-2)OCCO1	IC50	2.2 nM

* * *

Biological target: human vasopressin V1a receptor (Homo sapiens, UniProt P37288)
Assay: Human vasopressin V1a receptor binding assay
Conditions: 1321N1 cell membranes, [3H]vasopressin; read-out: Ki (nM) on hV1a cell line
Where a name gives a salt, the structure may show the parent alone.

compound	unit_spec	Ki
CC(C)N1CC[C@]2(CC[C@@H](c3nnc4n3-c3ccc(Cl)cc3CC3(C4)OCCO3)CC2)C1=O [Example 115]	nM	0.5
O=C(N[C@H]1Cc2cc(Cl)ccc2-n2c(nnc2[C@H]2CC[C@H](Oc3ccccn3)CC2)C1)C1CCOCC1 [Example 151]	nM	30
NC1Cc2cc(Cl)ccc2-n2c(nnc2C2CCN(c3ccccn3)CC2)C1 (stereo not shown) [Example 2]	nM	7
COC1Cc2ccccc2-n2c(nnc2[C@H]2CC[C@H](Oc3ccccn3)CC2)C1 (stereo partly shown) [Example 109]	nM	0.4
CC(C)NC1Cc2cc(C#N)ccc2-n2c(nnc2[C@H]2CC[C@H](Oc3ccccn3)CC2)C1 (stereo partly shown) [Example 82, trifluoroacetate]	nM	29
CO[C@]1(C(F)(F)F)CC[C@@H](c2nnc3n2-c2ccc(Cl)cc2CC2(C3)OCCO2)CC1 [Example 235]	nM	0.3
CN(C)CC(=O)OC1Cc2cc(Cl)ccc2-n2c(nnc2[C@H]2CC[C@H](Oc3ccccn3)CC2)C1 (stereo partly shown) [Example 216]	nM	0.7
COC1Cc2cc(Cl)ccc2-n2c(nnc2[C@H]2CCN(Cc3cccnc3)C2)C1 (stereo partly shown) [Example 251]	nM	18.5
Clc1ccc2c(c1)C[C@H](N1CCCC1)Cc1nnc([C@H]3CC[C@H](Oc4ccccn4)CC3)n1-2 [Example 117]	nM	0.9
Clc1ccc2c(c1)CC1(Cc3nnc(C4CCN([C@@H]5CCOC5)CC4)n3-2)OCCO1 [Example 188]	nM	0.5
NC1Cc2cc(Cl)ccc2-n2c(nnc2[C@H]2CC[C@H](Oc3ccccn3)CC2)C1 (stereo partly shown) [Example 6]	nM	2
CCO[C@]1(C)CC[C@@H](c2nnc3n2-c2ccc(Cl)cc2CC(N(C)C)C3)CC1 (stereo partly shown) [Example 234]	nM	3.8
FC(F)(F)CN[C@H]1Cc2cc(Cl)ccc2-n2c(nnc2[C@H]2CC[C@H](Oc3ccccn3)CC2)C1 [Example 224]	nM	0.7
CN(C)[C@H]1Cc2cc(Cl)ccc2-n2c(nnc2[C@H]2CC[C@H](Oc3ccccn3)CC2)C1 [Example 67]	nM	0.6
N#CCC(=O)N[C@@H]1Cc2cc(Cl)ccc2-n2c(nnc2[C@H]2CC[C@H](Oc3ccccn3)CC2)C1 [Example 186]	nM	0.4
CNC1Cc2cc(Cl)ccc2-n2c(nnc2[C@H]2CC[C@H](Oc3ccccn3)CC2)C1 (stereo partly shown) [Example 21]	nM	0.7
